# TARGET_OR_TEST_SYSTEM: Solute carrier family 2, facilitated glucose transporter member 1 (Homo sapiens)
# METHOD_SUMMARY: ST_JUDE_LEISH: Cytotoxicity at 2uM final concentration against transgenic Leishmania Mexicana promastigotes LmGLUT1 that are glucose transport deficient and complemented with the human glucose transporter GLUT1. Activity is measured by DNA content using SYBR green in vitro
# Type: functional
// inhibition lookup, one value per entry
Numeric only. Scale: %

Below, each entry is followed by its recorded inhibition result.
COMPOUND	TARGET_OR_TEST_SYSTEM	UNITS_SYMBOL	inhibition
Cc1cc(=NN=Cc2ccccc2Cl)c2ccccc2[nH]1	Solute carrier family 2, facilitated glucose transporter member 1 (Homo sapiens)	%	8.12
CC(C)[C@H](NC(=O)c1ccc(O)c(-c2cccc(C(F)(F)F)c2)c1)C(=O)NC1CCCc2ccccc21 (some centres undefined)	Solute carrier family 2, facilitated glucose transporter member 1 (Homo sapiens)	%	3.9
COc1ccc(NC(=O)c2ccc(NC(=O)c3ccc(Cl)cc3)cc2)cc1N1CCN(C)CC1	Solute carrier family 2, facilitated glucose transporter member 1 (Homo sapiens)	%	4.33

Can you share its inhibition? I mean this compound: `COc1cc(C)nc2ccc(NC(=O)Nc3ccccc3[N+](=O)[O-])cc12`
2.28

Next: `COc1ccc2ncc(F)c([C@H](O)CN3CCC(NCc4ccc5c(c4)NC(=O)CO5)CC3)c2c1`
1.17

Next: `c1ccc2c(c1)ncn2-c1ccnc(Nc2ccncc2)n1`
6.4

Next: Cc1ccc(NC(=O)c2ccc3ncccc3c2)cc1OC1CCN(CCC(C)C)C1 (centres undefined)
2.61

Next: `N#Cc1ccc(-c2nc3c(N4CCCC4)cccc3n2CCNCc2ccccc2)cc1`
12.3

Next: `Nc1nc(N)c2cc(NC(=O)c3ccc(Cl)c(Cl)c3)ccc2n1`
5.31

Next: `NC(=O)c1ccccc1OCC(=O)Nc1cccc(-c2ccc(-c3nc4ccccc4[nH]3)cc2)c1`
8.01

Next: `CC(C)c1cc(Oc2c(I)cc(CCCc3ncc[nH]3)cc2I)ccc1O`
9.35

---

# TARGET_OR_TEST_SYSTEM: Solute carrier family 2, facilitated glucose transporter member 1 (Homo sapiens) (UniProt P11166)
# Sequence (P11166 whole entry): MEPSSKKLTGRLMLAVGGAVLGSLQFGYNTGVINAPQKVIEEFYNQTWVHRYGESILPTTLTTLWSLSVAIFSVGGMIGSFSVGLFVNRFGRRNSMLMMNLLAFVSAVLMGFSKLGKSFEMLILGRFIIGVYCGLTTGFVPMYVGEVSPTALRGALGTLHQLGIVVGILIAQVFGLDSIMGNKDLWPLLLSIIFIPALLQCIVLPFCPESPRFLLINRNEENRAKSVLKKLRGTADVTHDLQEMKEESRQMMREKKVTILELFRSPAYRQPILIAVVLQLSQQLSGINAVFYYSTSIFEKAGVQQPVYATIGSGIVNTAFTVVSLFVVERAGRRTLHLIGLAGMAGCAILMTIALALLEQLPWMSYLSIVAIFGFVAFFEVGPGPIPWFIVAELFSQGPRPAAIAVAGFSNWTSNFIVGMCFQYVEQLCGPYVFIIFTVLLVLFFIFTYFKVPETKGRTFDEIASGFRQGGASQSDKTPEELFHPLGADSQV
# METHOD_SUMMARY: ST_JUDE_LEISH: Cytotoxicity at 2uM final concentration against transgenic Leishmania Mexicana promastigotes LmGLUT1 that are glucose transport deficient and complemented with the human glucose transporter GLUT1. Activity is measured by DNA content using SYBR green in vitro
# Type: functional
// inhibition lookup, one value per entry
Numeric only. Scale: %

Below, each entry is followed by its recorded inhibition result.
MOLECULE	QUANTITY_MEASURED	UNITS_SYMBOL	ASSAY_VALUE
CCC[C@@H]([C@@H](CC1CCC(C)CC1)C(=O)N[C@@H](CO)C(=O)Nc1nccs1)N(O)C=O (some centres undefined)	inhibition	%	1.25
CN(C)CCCN(C)c1cccc2c1nc(-c1cccnc1)n2CCNCc1ccccc1	inhibition	%	6.47
CC(C)Cc1cn(-c2nc(-c3nc4ccccc4[nH]3)cs2)c2cc(Cl)ccc12	inhibition	%	6.36
Nc1c2c(nc3ccc(C(=O)Nc4ccc(Br)cc4)cc13)CCCC2	inhibition	%	5.71
CCCc1cn2c3c(cc(C(=O)N[C@@H](Cc4ccccc4)[C@H](O)CNC4CCOCC4)cc13)N(CC)S(=O)(=O)CC2	inhibition	%	1.86

Can you share its inhibition? I mean this molecule: `COc1ccc(C=NN=c2cc(C)[nH]c3c(C)cccc23)c2ccccc12`
1.53

---

# TARGET_OR_TEST_SYSTEM: Solute carrier family 2, facilitated glucose transporter member 1 (Homo sapiens) (UniProt P11166)
# METHOD_SUMMARY: ST_JUDE_LEISH: Cytotoxicity at 2uM final concentration against transgenic Leishmania Mexicana promastigotes LmGLUT1 that are glucose transport deficient and complemented with the human glucose transporter GLUT1. Activity is measured by DNA content using SYBR green in vitro
# Assay type: functional
QUANTITY_MEASURED: inhibition (%)
Numeric only. Scale: %

Below, each entry is followed by its recorded inhibition result.
COMPOUND	UNITS_SYMBOL	inhibition
CC1CN(Cc2ccccc2)CCN1c1ccc(NC(=O)c2ccc(F)cc2)cc1 (centres undefined)	%	-1.05
CS(=O)(=O)Cc1ccc(Nc2nccc(-c3c(-c4cccc(NC(=O)c5c(F)cccc5F)c4)nn4ncccc34)n2)cc1	%	12
CCOc1ccc2c(N/N=C/c3cccc([N+](=O)[O-])c3)cc(C)nc2c1	%	5.98

Can you share its inhibition? I mean this compound: `COc1cccc(-c2cc(C(=O)Nc3cc(Oc4ccc(O)cc4)cc([N+](=O)[O-])c3)on2)c1`
9.09

Next: `Cc1cnccc1/C=C/c1cccc(OCCN2CCc3ccc(S(C)(=O)=O)cc3CC2)c1`
1.95

Next: `O=S(=O)(NCCN1CCCC1)c1ccc(-c2ccc(CNCc3ccccc3)cc2)s1`
4.55

Next: Cc1cccc2nc(-c3ccc(-c4cccc(C(=O)N5CCCCC5C(C)O)c4)s3)[nH]c12 (centres undefined)
1.3

Next: `O=C(/C=C/c1ccc(Cl)c(Cl)c1)NCCCCCCN1CCN(C(=O)Nc2ccc(F)c(Cl)c2)CC1`
13.8

Next: `Cc1nnsc1C(=O)Nc1cccc(-c2csc(-c3nc4ccccc4[nH]3)c2)c1`
2.53

---

# TARGET_OR_TEST_SYSTEM: Glucose transporter (Leishmania mexicana)
# METHOD_SUMMARY: ST_JUDE_LEISH: Cytotoxicity at 2uM final concentration against transgenic Leishmania Mexicana promastigotes LmGT2 that are glucose transport deficient and complemented with the L. Mexicana glucose transporter 2. Activity is measured by DNA content using SYBR green in vitro
# Format: functional
// inhibition lookup, one value per entry
Numeric only. Scale: %

COMPOUND	QUANTITY_MEASURED	ASSAY_VALUE
Cc1nc(N)nc(N)c1OCCCCOc1ccccc1	inhibition	2.4
N#Cc1ccc(-c2ccc(C(=O)NCC3CCN(CCN4CCC(c5ccc6c(c5OCC(N)=O)CCCC6)CC4)CC3)cc2)cc1	inhibition	2.54
CN1CCC(C(=O)N(Cc2ccc(-c3ccc(CNCCc4ccccc4)cn3)cc2)Cc2cccc(F)c2)CC1	inhibition	4.08

Can you share its inhibition? I mean this compound: `COCCCNc1sc(S(=O)(=O)c2ccccc2)nc1S(=O)(=O)c1ccc(C)cc1`
1.51

---

// inhibition lookup, one value per entry
# TARGET_OR_TEST_SYSTEM: Solute carrier family 2, facilitated glucose transporter member 1 (Homo sapiens) (UniProt P11166)
# METHOD_SUMMARY: ST_JUDE_LEISH: Cytotoxicity at 2uM final concentration against transgenic Leishmania Mexicana promastigotes LmGLUT1 that are glucose transport deficient and complemented with the human glucose transporter GLUT1. Activity is measured by DNA content using SYBR green in vitro
# Assay type: functional
Numeric only. Scale: %

Below, each entry is followed by its recorded inhibition result.
COMPOUND	inhibition [%]
Cc1cc(-c2nc3ccc(C(=O)NCc4ccccc4)cc3n2C2CCN(C(=O)c3ccc(-c4ccccc4)cc3)CC2)ccn1	1.02
COc1ccc(NCc2cccc(-c3cccc(CNCCc4ccccc4)c3)c2)cc1	0
O=C(CCN1C(=O)c2ccccc2C1=O)N1CCN(CC=Cc2ccccc2)CC1	-1.54
COc1cccc(CNC(=O)c2ccnc(-c3cccc(CN(C)C4CCN(C)CC4)c3)c2)c1	-0.04

Can you share its inhibition? I mean this compound: `O=C(/C=C/c1ccc(Cl)c(Cl)c1)NC1CCN(Cc2cccc(O)c2)CC1`
2.92

Next: `CNCc1cccc2nc(-c3ccc(Cc4cc(Cl)ccc4OCC(C)C)o3)[nH]c12`
4.31

Next: `O=C(Nc1ccc(OC2CCN(Cc3ccc(F)cc3)CC2)c(Cl)c1)c1cccs1`
2.99

Next: `COc1cc2nc(N3CCC(C(N)=O)CC3)nc(NCc3ccccc3)c2cc1OC`
3.29

Next: CC1CCCN1Cc1ccc(-c2ccc3c(=O)cc(CCc4cccc(F)c4F)n(CC(=O)N(C)Cc4ccc(-c5ccc(C(F)(F)F)cc5)cc4)c3n2)cc1 (centres undefined)
-0.63

---

# TARGET_OR_TEST_SYSTEM: Glucose transporter (Leishmania mexicana) (UniProt O61059)
# METHOD_SUMMARY: ST_JUDE_LEISH: Cytotoxicity at 2uM final concentration against transgenic Leishmania Mexicana promastigotes LmGT2 that are glucose transport deficient and complemented with the L. Mexicana glucose transporter 2. Activity is measured by DNA content using SYBR green in vitro
# Format: functional
QUANTITY_MEASURED: inhibition (%)
Numeric only. Scale: %

Below, each entry is followed by its recorded inhibition result.
MOLECULE	ASSAY_VALUE
CCN1CCN(Cc2ccc(-c3ccc(NS(=O)(=O)c4cccc5cccnc45)cc3)cc2)CC1	9.92
CNC(=O)c1ccc(/C=C/C(=O)N2CCc3ccc(-c4ccccc4)cc3C2c2cccc(C(F)(F)F)c2)cc1 (stereo not drawn)	0.99
CN(C)CCc1coc2ccc(C(=O)Nc3ccc(-c4ccc(O)cc4)cc3)cc12	2.77
O=C(Nc1cccc(-c2ccc(-c3nc4cc(C(F)(F)F)ccc4[nH]3)cc2)c1)Nc1ccc(F)c(F)c1F	0.37
O=C(Nc1cccc(CN2CCCN(Cc3ccc(O)cc3)CC2)c1)c1ccc(Cl)c(Cl)c1	5.2

Give Glucose transporter (Leishmania mexicana) (UniProt O61059) inhibition for `CS(=O)(=O)c1cccc2sc(N3CCN(C(=O)c4ccc([N+](=O)[O-])o4)CC3)nc12`
3.97

Next: `O=C(Nc1cccc(-c2ccc(NCCCN3CCCC3)nc2)c1)c1ccccc1`
0.77

Next: `CC(C)n1nc(C(=O)N2CCN(c3ccccc3)CC2)c2ccccc2c1=O`
-0.69

Next: `N#Cc1ccc(-c2ccc(C(=O)NCCCCN3CCC(c4cn(CCO)c5ccccc45)CC3)cc2)cc1`
0.2

Next: `COc1ccc(NC(=O)Nc2ccc(-c3ccc(-c4nc5ccccc5[nH]4)cc3)cc2)cc1`
2.97

Next: `O=C(Nc1ccc(Cl)cc1)c1ccc(CN2CCCN(Cc3cccc(F)c3)CC2)cc1`
3.31

Where do these numbers come from? They come from ChEMBL document CHEMBL3433997.
